Target: TNIK (Homo sapiens)
Construct: purchased Promega V4158
Sequence (Q9UKE5 1-367 limits assumed): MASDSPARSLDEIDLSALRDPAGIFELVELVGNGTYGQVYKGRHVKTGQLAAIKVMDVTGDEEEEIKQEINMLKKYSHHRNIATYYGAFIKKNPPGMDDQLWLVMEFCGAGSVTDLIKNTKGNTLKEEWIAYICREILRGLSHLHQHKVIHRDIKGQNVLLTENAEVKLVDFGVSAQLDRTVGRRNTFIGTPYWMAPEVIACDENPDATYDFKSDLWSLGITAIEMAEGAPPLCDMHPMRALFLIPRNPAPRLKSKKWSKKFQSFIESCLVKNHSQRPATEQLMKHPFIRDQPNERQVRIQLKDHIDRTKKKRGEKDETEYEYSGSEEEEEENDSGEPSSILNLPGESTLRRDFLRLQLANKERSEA
Assay: ADP-Glo Kinase Assay, inhibition activity on TNIK
Format: biochemical
Conditions: read-out: TNIK
pIC50: −log10 of the molar value. Where a name gives a salt, the structure may show the parent alone.
Give Y when the value for pIC50 is at least 6. Give N when it is less.

Problem: Item COc1ccccc1-c1ccc(NC(=O)c2ccc(NCCCN3CCOCC3)cc2)c2c1CNC2=O with pIC50 of 6 or above?
Solution: Y

Problem: In plain terms: is recorded pIC50 at least 6 for Cc1ccc(C(=O)Nc2ccc(-c3ccccc3)c3c2C(=O)NC3)c(C)c1 ?
Solution: N

Problem: Reported pIC50 reaches at least 6 for COc1ccccc1-c1ccc(NC(=O)c2ccc(NCCO)cc2)c2c1CNC2=O ?
Solution: Y

Problem: Please tell me: is the compound CNC(=O)c1ccc(NC(=O)c2ccc(F)cc2)c2c1CNC2=O at or over 6 in terms of pIC50?
Solution: N

Problem: Entry COCCNc1ccc(C(=O)Nc2ccc(-c3cccc(OC)c3OC)c3c2C(=O)NC3)cc1 : is its pIC50 no less than 6?
Solution: Y

Problem: Quick check: does CC(=O)Nc1cccc(C(=O)Nc2ccc(-c3ccccc3)c3c2C(=O)NC3)c1 have pIC50 greater than or equal to 6?
Solution: Y

Problem: State whether the measured pIC50 reaches 6, counting equality as reaching it, for CS(=O)(=O)c1cccc(-c2ccc(NC(=O)c3ccccc3)c3c2CNC3=O)c1
Solution: N

Problem: In plain terms: is recorded pIC50 at least 6 for Cc1ccc(NC(=O)c2ccccc2)c2c1CNC2=O ?
Solution: N

Problem: API: above_or_equal(metric=pIC50, cutoff=6) for item Cc1ccccc1NC(=O)Nc1ccc(-c2ccccc2)c2c1C(=O)NC2
Solution: N

Problem: Is it the case that O=C(Nc1ccc(-c2ccccc2)c2c1C(=O)NC2)c1ccc(Br)s1 has pIC50 reaching or exceeding 6?
Solution: N

Problem: Is the recorded value of pIC50 equal to or greater than 6 for this compound? O=C(Nc1ccc(-c2ccccc2)c2c1C(=O)NC2)c1ccc(NCCN2CCOCC2)cc1
Solution: Y

Problem: Given Cc1cc(C)cc(-c2ccc(NC(=O)c3ccccc3)c3c2CNC3=O)c1 , state whether its pIC50 is at least 6.
Solution: N

Problem: pIC50 >= 6 for NC1CCN(c2ccc(C(=O)Nc3ccc(Nc4ccccc4)c4c3C(=O)NC4)cc2)CC1 ?
Solution: Y

Problem: In plain terms: is recorded pIC50 at least 6 for O=C(Nc1ccc(-c2cccc(F)c2F)c2c1C(=O)NC2)c1ccc(NCCN2CCCC2)cc1 [Example 365, hydrochloride] ?
Solution: Y

Problem: Evaluate CNC(=O)c1ccc(NC(=O)c2ccc(NCCN3CCCC3)cc2)c2c1CNC2=O : pIC50 at minimum 6?
Solution: N

Problem: Hello, I need to know if COc1cccc(-c2ccc(NC(=O)c3ccccc3)c3c2C(=O)NC3=O)c1OC has measured pIC50 not below 6. Thanks!
Solution: Y

Problem: Does O=C(Nc1ccc(-c2ccc(F)c(F)c2)c2c1C(=O)NC2)c1ccccc1 have a reported pIC50 of at least 6?
Solution: N

* * *

Kindly supply the reported IC50 values for the records listed here.
Target: TNIK (Homo sapiens)
Construct: purchased Promega V4158
Experiment: ADP-Glo Kinase Assay, inhibition activity on TNIK
Assay type: biochemical
Conditions: read-out: TNIK

Problem: Please give measured IC50 of the following entry: COc1cccc(Nc2ccc(NC(=O)c3ccc(NCCCN4CCCC4)cc3)c3c2CNC3=O)c1 [Example 447]
Solution: 550 nM

Problem: Read off the recorded IC50 for CN1CCN(CCCNc2ccc(C(=O)Nc3ccc(-c4ccco4)c4c3C(=O)NC4)cc2)CC1 [Example 295]
Solution: 520 nM

Problem: Read the entry CN1CCN(CCNc2ccc(-c3ccccc3)c3c2C(=O)NC3)CC1 [Example 258] and write its reported IC50.
Solution: > 20000 nM

Problem: Note IC50 for the compound shown: O=C(Nc1ccc(-c2ccccc2)c2c1C(=O)NC2)c1cccnc1 [Example 213]
Solution: 600 nM

Problem: Report IC50, nothing else, for this compound: CSc1ccc(-c2ccc(NC(=O)c3ccccc3)c3c2CNC3=O)cc1 [Example 41]
Solution: 1200 nM

Problem: Tell us which IC50 value is on record for COCCCNc1ccc(C(=O)Nc2ccc(-c3ccccc3OC)c3c2C(=O)NC3)cc1 [Example 332]
Solution: 510 nM

Problem: Give the reported value of IC50 for this record: CS(=O)(=O)c1cccc(C(=O)Nc2ccc(-c3ccccc3)c3c2C(=O)NC3)c1 [Example 99]
Solution: 4300 nM

Problem: Please indicate IC50 recorded for COc1cccc(Nc2ccc(NC(=O)c3ccc(NCCCN4CCCCC4)cc3)c3c2CNC3=O)c1 [Example 448]
Solution: 620 nM
